Cited source: patent US11339161B2

Target: MAP4K4 (HGK) (Homo sapiens, UniProt O95819)
Sequence (O95819 whole entry): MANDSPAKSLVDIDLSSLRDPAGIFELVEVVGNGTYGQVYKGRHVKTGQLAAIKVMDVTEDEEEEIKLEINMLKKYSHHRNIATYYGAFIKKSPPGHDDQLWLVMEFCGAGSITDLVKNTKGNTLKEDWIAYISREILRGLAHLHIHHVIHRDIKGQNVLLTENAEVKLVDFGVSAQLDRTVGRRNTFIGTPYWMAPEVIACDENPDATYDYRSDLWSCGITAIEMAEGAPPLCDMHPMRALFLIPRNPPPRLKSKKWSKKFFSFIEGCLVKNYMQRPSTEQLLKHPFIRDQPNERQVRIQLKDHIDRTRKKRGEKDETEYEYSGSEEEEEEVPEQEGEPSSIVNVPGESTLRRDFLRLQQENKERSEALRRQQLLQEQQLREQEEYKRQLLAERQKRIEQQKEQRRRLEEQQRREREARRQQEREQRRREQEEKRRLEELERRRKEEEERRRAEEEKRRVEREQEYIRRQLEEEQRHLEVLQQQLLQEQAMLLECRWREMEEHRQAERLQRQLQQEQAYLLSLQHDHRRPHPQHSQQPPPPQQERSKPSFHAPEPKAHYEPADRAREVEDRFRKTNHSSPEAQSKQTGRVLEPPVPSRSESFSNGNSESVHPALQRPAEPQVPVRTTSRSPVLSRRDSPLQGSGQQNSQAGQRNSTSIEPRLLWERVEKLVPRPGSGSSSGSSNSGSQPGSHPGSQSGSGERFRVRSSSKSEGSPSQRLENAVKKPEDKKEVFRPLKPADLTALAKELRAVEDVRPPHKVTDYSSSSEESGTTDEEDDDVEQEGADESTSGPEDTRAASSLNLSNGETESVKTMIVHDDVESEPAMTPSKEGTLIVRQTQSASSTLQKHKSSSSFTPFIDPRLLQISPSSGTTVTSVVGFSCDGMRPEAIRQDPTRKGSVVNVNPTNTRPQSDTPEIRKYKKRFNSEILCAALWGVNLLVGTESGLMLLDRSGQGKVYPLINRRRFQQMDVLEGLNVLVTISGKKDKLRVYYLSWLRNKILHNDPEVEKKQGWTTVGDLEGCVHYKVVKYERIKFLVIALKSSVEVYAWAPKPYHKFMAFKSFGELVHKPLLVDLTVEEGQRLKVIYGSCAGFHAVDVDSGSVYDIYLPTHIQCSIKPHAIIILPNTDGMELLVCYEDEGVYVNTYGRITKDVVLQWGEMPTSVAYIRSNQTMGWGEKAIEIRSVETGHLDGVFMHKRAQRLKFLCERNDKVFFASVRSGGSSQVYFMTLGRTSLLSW
Assay: Z'-LYTE SelectScreen biochemical kinase assay MAP4K4 (HGK)
Settings: read-out: % Inhibition mean MAP4K4 (HGK)
Returns one of t or f; t when inhibition at 10 µM is >= 50%.

# count of solved cases: 2
> print(dat)
                                   compound                               measured.on  cat
1  CCn1ncc2c1CCC(Nc1nc3c(-c4ccccc4)cccn3n1)C2 (stereo not drawn)  MAP4K4 (HGK) (Homo sapiens, UniProt O95819)    t
2  CCn1ncc2c1CCC(Nc1nc3c(-c4cnccc4OC)cccn3n1)C2 (stereo not drawn)  MAP4K4 (HGK) (Homo sapiens, UniProt O95819)    f

[Q] Is it the case that Cc1cc(F)ccc1-c1cccn2nc(NC3CCc4c(cnn4C)C3)nc12 (stereo not drawn) has inhibition at 10 µM reaching or exceeding 50%?
[A] f

[Q] Is reported inhibition at 10 µM greater than or equal to 50% here: CCn1ncc2c1CC[C@@H](Nc1nc3c(-c4ccc(F)cc4C)cccn3n1)C2
[A] t

[Q] Could you please find out whether CCn1ncc2c1CCC(Nc1nc3c(-c4cncc(OC)c4)cccn3n1)C2 (stereo not drawn) has inhibition at 10 µM that meets 50% or exceeds it?
[A] t

[Q] In plain terms: is recorded inhibition at 10 µM at least 50% for Cc1cc(F)ccc1-c1cccn2nc(NC3CCc4cnn(C)c4C3)nc12 (stereo not drawn) ?
[A] f

###

Molecular target: CSF1R (FMS) (Homo sapiens, UniProt P07333)
Sequence (P07333 20-972): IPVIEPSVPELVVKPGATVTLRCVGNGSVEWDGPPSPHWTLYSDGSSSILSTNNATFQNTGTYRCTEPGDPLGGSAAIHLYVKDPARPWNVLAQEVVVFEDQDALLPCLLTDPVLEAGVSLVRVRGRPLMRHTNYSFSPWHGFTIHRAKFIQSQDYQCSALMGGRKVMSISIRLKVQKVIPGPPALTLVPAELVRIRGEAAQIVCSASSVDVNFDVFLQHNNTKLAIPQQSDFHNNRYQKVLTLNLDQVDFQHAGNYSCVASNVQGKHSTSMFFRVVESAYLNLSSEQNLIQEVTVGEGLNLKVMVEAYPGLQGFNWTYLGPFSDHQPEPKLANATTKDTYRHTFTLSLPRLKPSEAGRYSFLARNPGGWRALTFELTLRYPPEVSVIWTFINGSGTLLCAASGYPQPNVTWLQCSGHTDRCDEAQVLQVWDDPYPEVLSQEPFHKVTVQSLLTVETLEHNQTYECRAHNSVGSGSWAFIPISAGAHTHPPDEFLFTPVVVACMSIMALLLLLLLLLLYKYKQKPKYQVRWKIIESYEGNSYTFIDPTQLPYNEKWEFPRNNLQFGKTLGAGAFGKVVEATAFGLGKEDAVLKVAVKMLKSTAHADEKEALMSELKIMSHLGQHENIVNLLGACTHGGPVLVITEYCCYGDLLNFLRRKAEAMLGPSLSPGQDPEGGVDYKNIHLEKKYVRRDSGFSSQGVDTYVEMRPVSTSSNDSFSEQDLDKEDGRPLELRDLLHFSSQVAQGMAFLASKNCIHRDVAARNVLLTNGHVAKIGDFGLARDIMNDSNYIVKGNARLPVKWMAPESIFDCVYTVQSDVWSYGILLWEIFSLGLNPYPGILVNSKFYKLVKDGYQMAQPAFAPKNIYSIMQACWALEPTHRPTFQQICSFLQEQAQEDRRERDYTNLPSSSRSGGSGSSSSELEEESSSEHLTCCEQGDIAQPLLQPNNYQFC
Assay: Z'-LYTE SelectScreen biochemical kinase assay CSF1R (FMS)
Conditions: 10 μmolar compound concentration; ATP at Km app; read-out: CSF1R (FMS) inhibition
Measured endpoint: inhibition at 10 µM

> print(dat)
                                   compound                               measured.on    measured.endpoint     result
1  Cc1cc(F)ccc1-c1cccn2nc(NC3CCc4c(cnn4C)C3)nc12 (centres unmarked)  CSF1R (FMS) (Homo sapiens, UniProt P07333)  inhibition at 10 µM  40 to 80%
2  CC1(C)NC(=O)c2ccc(Nc3nc4c(-c5cccc(F)c5)cccn4n3)cc21 [Cpd. 302 in WO09155551, reference compound]  CSF1R (FMS) (Homo sapiens, UniProt P07333)  inhibition at 10 µM      > 80%
3  CCn1ncc2c1CCC(Nc1nc3c(-c4ccc(F)cc4)cccn3n1)C2 (centres unmarked)  CSF1R (FMS) (Homo sapiens, UniProt P07333)  inhibition at 10 µM      < 40%

Summary for this compound, Cc1cc(F)ccc1-c1cccn2nc(NC3CCc4c(cnn4C(C)C)C3)nc12 (centres unmarked) : inhibition at 10 µM is 40 to 80%

response.value for CCn1ncc2c1CC[C@@H](Nc1nc3c(-c4ccc(F)cc4C)cccn3n1)C2 (field: inhibition at 10 µM) = < 40%

Recorded result, Cc1cc(F)ccc1-c1cccn2nc(NC3CCc4cnn(C)c4C3)nc12 (centres unmarked) , inhibition at 10 µM: < 40%

inhibition at 10 µM for CCn1ncc2c1CCC(Nc1nc3c(-c4ccc(C)nc4)cccn3n1)C2 (centres unmarked) is < 40%

Record summary for CCn1ncc2c1CCC(Nc1nc3c(-c4cncc(Cl)c4)cccn3n1)C2 (centres unmarked) : reported inhibition at 10 µM = 40 to 80%
